# maps each entry to its melting point

>>> measurement("OC(CNC1=NCCN1)c1ccc(Cl)cc1 (stereo not given)")
"156 to 158 °C"
>>> measurement("COC(=N)N1CCC(c2nn(-c3ccccc3)c3ccccc23)CC1")
"80 to 83 °C"
>>> measurement("COc1cccc([C@H]2O[C@H](CC(=O)NC(C)CC(=O)O)C(=O)N(CC(C)(C)C)c3ccc(Cl)cc32)c1OC (stereo not given in full)")
"128 to 130 °C"

Okay, now this compound:
For the compound shown here, O=C(O)CCC(=O)NCC(=O)N1c2ccccc2N(Cc2ccccc2)C(=O)[C@H]2CCC[C@H]21 (relative stereo) , give the reported melting point.
148 to 151 °C

* * *

# maps each entry to its melting point

>>> measurement("CC1(C)CCc2c(N3CCSCC3)nc3sc4c(NCCCN5CCCC5=O)ncnc4c3c2C1")
"219 to 221 °C"
>>> measurement("CON(C)C(=O)NC(CSC(C)=O)Cc1ccccc1 (stereo not given)")
"68 to 70 °C"
>>> measurement("c1ccc(-c2nc(COc3ccc(CCCCn4ccnc4)cc3)cs2)cc1")
"93 to 94 °C"

For the molecule shown here, "O=C1Nc2ccc(NC(=O)C(=O)N3CCC(Cc4ccccc4)CC3)cc2C1=O" , give the reported melting point.
234 to 236 °C

For the molecule shown here, "Brc1ccc(C=Cc2cc3ccccc3s2)s1" , give the reported melting point.
171 to 172 °C

For the molecule shown here, CC(Oc1cc(Oc2ccc(C(F)(F)F)cc2Cl)ccc1[N+](=O)[O-])C(=O)NCC1CCCO1 (stereo not given) , give the reported melting point.
102 to 104 °C

For the molecule shown here, "C=CCn1c(=O)n(-c2ccc3c(c2)OCO3)c2ncccc21" , give the reported melting point.
100 °C

For the molecule shown here, COc1ccc(C2NC(C(=O)O)C(C)(C)S2)c(C(=O)O)c1OC (stereo not given) , give the reported melting point.
90 to 91 °C

For the molecule shown here, "CNC(=O)Cc1ncc2c(n1)-c1ccc(Cl)cc1C(c1ccccc1F)=NC2" , give the reported melting point.
175 to 177 °C

For the molecule shown here, CC(=O)Oc1ccc2ccc(=O)oc2c1CC(Br)CBr (stereo not given) , give the reported melting point.
123 to 124 °C

* * *

# maps each entry to its melting point

Consider the reported melting point for these compounds:
>>> measurement("COC(=O)c1cc(OC)c(OC)c2c1C=CCO2")
"88.5 to 90 °C"
>>> measurement("CC(=O)c1ccc(NS(C)(=O)=O)c(Nc2ccc(F)cc2F)c1")
"113 to 115 °C"
>>> measurement("CC(C)(C)OC(=O)NNC(=O)C=Cc1cc(=O)c(OCc2ccccc2)c[nH]1")
"141 °C"

For the compound shown here, "c1cc(-n2cccn2)cc(-n2cnc3cc(-c4ccoc4)ccc32)c1" , give the reported melting point.
170 to 173 °C

For the compound shown here, "CCCCCCCCCN(CCC)CCC(O)(P(=O)(O)O)P(=O)(O)O" , give the reported melting point.
45 to 47 °C

For the compound shown here, "CCCCCCCC(=O)NC(=O)OCc1nc(C(C)C)c(Sc2cc(Cl)cc(Cl)c2)n1Cc1ccncc1" , give the reported melting point.
139 to 141 °C

For the compound shown here, "N#CCCN(N)c1cc2ccccc2[nH]1" , give the reported melting point.
120 to 122 °C

For the compound shown here, "CC(C)(C)CC(C)(C)c1cc(N=Nc2cc(C(=O)O)ccc2Cl)c(O)c(C(C)(C)c2ccccc2)c1" , give the reported melting point.
218 to 220 °C

For the compound shown here, "COC(=O)CCC/C=C(\c1cc(F)cc(C(F)(F)F)c1)c1cc(C)c2on(C)c(=O)c2c1" , give the reported melting point.
97.5 to 98.5 °C

For the compound shown here, "CC(C)(C)OC(=O)Nc1cc(OCC#N)c(-c2ccc(F)cc2)cc1N" , give the reported melting point.
118 to 119 °C

* * *

Measure Name: melting point

Consider the reported melting point for these molecules:
>>> measurement("CCOC(=O)N(C)N1CCc2ccccc2C(Oc2ccc(C(F)(F)F)cc2)C1 (stereo not given)")
"204 to 205 °C"
>>> measurement("COCc1nnc2n1-c1sc(Cl)cc1C(c1ccccc1[N+](=O)[O-])=NC2")
"204 to 205 °C"
>>> measurement("CCCN(CCC)S(=O)(=O)c1cc(C2=CCC(=O)O2)ccc1Cl")
"118 to 121 °C"
>>> measurement("O=C(CCl)Nc1c(Cl)cccc1SSc1cccc(Cl)c1NC(=O)CCl")
"188 to 189 °C"
>>> measurement("COc1ccc([N+](=O)[O-])c(C#N)c1C")
"128 to 130 °C"
>>> measurement("COc1cc(C(C)C)c2c(c1)S(=O)(=O)N(COc1cc(C(F)(F)F)nn1-c1ccc([N+](=O)[O-])cc1)C2=O")
"185 to 187 °C"

For the molecule shown here, "O=C(O)c1ccc(-c2nnn[nH]2)nc1" , give the reported melting point.
257 to 259 °C

For the molecule shown here, COc1cc2c(cc1C)CCC2c1cnc[nH]1 (stereo not given) , give the reported melting point.
68 to 70 °C

For the molecule shown here, "COC(=O)C(=Cc1c[nH]c2cc(Cl)ccc12)[N+](=O)[O-]" , give the reported melting point.
159 to 160 °C

For the molecule shown here, "Nc1ccccc1C(=O)NC1CCCCC1" , give the reported melting point.
152 to 154 °C

* * *

Measure Name: melting point

Consider the reported melting point for these compounds:
>>> measurement("COc1cc(C)c(C(=O)c2c(OC)cncc2C(F)(F)F)c(OC)c1OC")
"103 to 106 °C"
>>> measurement("CC(S)C(=O)Nc1ccc(C2=NNC(=O)CC2C)cc1 (stereo not given)")
"236 to 237 °C"
>>> measurement("CCc1cncnc1Nc1ccc(C(=O)CCC2CCN(Cc3ccccc3)CC2)cc1")
"136 to 138 °C"
>>> measurement("N#CN(c1ccccc1)S(=O)(=O)c1ccccc1")
"65 to 66 °C"
>>> measurement("O=C(Nc1ccc(Cl)cn1)N[C@@H]1C[C@@H]1c1cccc([N+](=O)[O-])c1 (racemic)")
"201 to 202 °C"
>>> measurement("COc1ccc2c(c1)cc(Cc1cc3cc(OC)ccc3n1S(=O)(=O)c1ccccc1)n2S(=O)(=O)c1ccccc1")
"159 to 160 °C"

For the compound shown here, O=S1(=O)NC2CCCN2c2ccc(Oc3ccc(Cc4nnn[nH]4)cc3)cc21 (stereo not given) , give the reported melting point.
209 to 212 °C

For the compound shown here, "CC(=O)Nc1ccc2[nH]c(=O)cc(CCN3CCC(c4c[nH]c5ccccc45)CC3)c2c1" , give the reported melting point.
180 to 183 °C

For the compound shown here, NC(=O)N1C(=O)C(C(=O)c2cc(Cl)cs2)c2cc(Cl)ccc21 (stereo not given) , give the reported melting point.
212 to 214 °C

For the compound shown here, "Cc1cc(C=O)ccc1-c1ccccc1C(F)(F)F" , give the reported melting point.
127 to 130 °C

* * *

# maps each entry to its melting point

>>> measurement("CC1CN(Cc2ccccc2)Cc2c(C=O)c(-c3ccccc3)n(Cc3ccccc3)c21 (centres undefined)")
"120 to 121 °C"

For the compound shown here, "C=CC(=O)NC(=O)NCCS(=O)(=O)C=C" , give the reported melting point.
177 to 179 °C

For the compound shown here, "CCN1c2ncccc2C(=O)Nc2c(C)cc(OC)nc21" , give the reported melting point.
249 to 251 °C

For the compound shown here, CN(C(CCn1c(=O)[nH]c2ccsc2c1=O)C(=O)O)S(=O)(=O)c1ccc(Oc2ccccc2)cc1 (centres undefined) , give the reported melting point.
218 to 219 °C

For the compound shown here, "Cc1sc2c(Br)c3ccccc3c(-c3ccc(O)cc3)c2c1C" , give the reported melting point.
165 to 168 °C

For the compound shown here, "CCn1c(=O)sc2cc(N)ccc21" , give the reported melting point.
132 to 133 °C

For the compound shown here, CC(C)c1cc(C(C)C)c(C(O)C(=O)c2ccc(C(C)C)c(OS(N)(=O)=O)c2C(C)C)c(C(C)C)c1 (centres undefined) , give the reported melting point.
96 to 101 °C

For the compound shown here, "O=C1c2ccccc2-c2c1c1ccccc1c(=O)n2CCCCCNS(=O)(=O)c1ccc(Br)cc1" , give the reported melting point.
169 to 171 °C

For the compound shown here, CCCC1(CC(=O)O)OC=CC2=C1NC1=C3CCCCC3CCC21 (centres undefined) , give the reported melting point.
78 to 80 °C

* * *

Measure Name: melting point

>>> measurement("CN1CCN(C(=O)c2ccc([N+](=O)[O-])cc2[N+](=O)[O-])CC1")
"130 to 132 °C"
>>> measurement("Cc1cn(C(C)C(=O)N(C)c2ccccc2)nc1-c1ccccc1 (stereo not given)")
"112 to 114 °C"
>>> measurement("CN(c1nc2cc(NC(=O)OC(C)(C)C)ccn2n1)C1CC1")
"323 °C"
>>> measurement("CCOc1ccc(OCCCN2CCN(c3ccc(Cl)nn3)CC2)cc1")
"125 to 127 °C"

For the molecule shown here, "CCOCc1nc2c(N)nc3cc(N4CCCCC4)ccc3c2n1CCCOC(C)C" , give the reported melting point.
182 to 184 °C

For the molecule shown here, "O=c1[nH]c2cc(C(F)(F)F)ccc2c(-c2cc(Cl)ccc2O)c1NS(=O)(=O)C(F)(F)F" , give the reported melting point.
267 to 270 °C

For the molecule shown here, "O=C(c1ccccc1)c1c[nH]c(=O)[nH]1" , give the reported melting point.
329 to 330 °C

For the molecule shown here, N#Cc1nn(-c2c(Cl)cc(C(F)(F)F)cc2Cl)c(-n2cccc2)c1S(=O)C(F)(F)F (stereo not given) , give the reported melting point.
165 to 167 °C

For the molecule shown here, CC1CNc2c(cnc3cc(Cl)ccc23)O1 (stereo not given) , give the reported melting point.
239 to 241 °C

For the molecule shown here, CCOC(=O)C1CC(O)CN1C(=O)c1ccc(OC)cc1 (stereo not given) , give the reported melting point.
64 °C

The values you see were collected from a melting point compilation (Tetko et al.; mined from patent text by program, amines drawn as free bases though some values may be those of a salt).
